# Protocol Description: label from the status in PepcDB records
Endpoint: protein production

residue_string=MDIEDLRTFVAVADAGGVSAAARRLGISKSIVSRRLFRIEAELGVQLLARTTRGAALTEAGITFRDHAARASAEIDTARETILPAGELHGRLRIAMPLTFGPTHFAPVLAEMARQHPQLHIHTSYSDRFVDLIAEGFDCAIRGAYLQDSNLIAKRVGPIHGKLVASPAYIKAHGSPEMVEQLVNHQALMQGTEAWQFMDGDRIVTVQPQGKFKADSATALAAAAAAGLGIAWLPDCITHAYLASGALVPIMTRYPVPPGAVYVVRPPSQHPARKVRVLTEMLTEYFKRTPELWGVDG endpoint="protein production" result=failed
residue_string=DPREVAGGYVEKLCARYGLADVRVVQSPAMGRGLTGELGNAGAALLEEVVKDGMTVGVSWGDTMLAVSEHLRTLPLVDVKVVQLKGGHSHTARNTNDMVTLTRFSRALNAEMMMLPLPVILDSKEAKELVVKDRHIASMLNLGAHCDVAVFTVGAVKSESLLLNLGYLSPSEQARLMEHAVGDVCSRFYDAQGEVADPDIDARTVGISLADLKKRPVRVLVAGGLEKAPAIEAALRTGVATHVVIDHATAQRVVEMA endpoint="protein production" result=failed
residue_string=MILAVLFANSVGNVLIERFNGVPAEERLHWRSFLVKLGADNLKGVKNEELLVACHKSVYIVYTMLGDVSIFLVGKDEYDELALAETIYIITAAVKDVCGKPPTERVFLDKYGRICLCLDEIVWNGLLENTDKDRIKRLIRLKPPSEV endpoint="protein production" result=failed
residue_string=MADMTKQAFMRLSNPKFIMLFLILWVSLLLSSNHTLSQLADYIFFTFLGTLGAIFANSTGAGGGVVFIPMFTQLNFTEQQSIATSFAIQCFGMTAGAVTWWHHYRTEKTDLRLWQGFKRIICVTTIASIIGLNAVFFYQVNSPATLHTSFSWFSLLLGFFIVLTIYLLQPHRERSQLYYVDYIFLILIGLFGGAVTAWLSVGVGELLVIYLLLRHFDISMAVAAAVIVSAISVWTAIAQVNSDVYWQVVLFAGPGAVLGGIFAKTLVTHLSAIKLKLFFACWLLLSGVVGLI endpoint="protein production" result=failed
residue_string=PVVVAVGAHREAAAVVDTAARLARDTASPLEVVHVRRTAVVEEQAADTETDEQAKAAVTAHLDRLGGMGVTATGQILTGVGDHAAAGRALARHAAEVGARTVAVGRSPRGPLAQFADGSFTSALTHAATCTVVLVDPNAEPR endpoint="protein production" result=failed
residue_string=MGRKDSLDLEEEAASGASSALEAGGSSGLEDVLPLLQQADELHRGDEQGKREGFQLLLNNKLVYGSRQDFLWRLARAYSDMCELTEEVSEKKSYALDGKEEAEAALEKGDESADCHLWYAVLCGQLAEHESIQRRIQSGFSFKEHVDKAIALQPENPMAHFLLGRWCYQVSHLSWLEKKTATALLESPLSATVEDALQSFLKAEELQPGFSKAGRVYISKCYRELGKNSEARWWMKLALELPDVTK endpoint="protein production" result=failed
residue_string=MDRIKSWEYDDVYNKFAIKDLDKSSFKRGSHIPIKVRKVFECEDIKYGDKKKITLIYKGEAFPAEIEGEIKGRIRMNWPKLIPKMKEVFKNEINDFEDSKELSVRVPRLKFTKETAIKYDVEMKTKYSHDVLCELERLDIDVENKTIEEINEVGEVIERVVKARKNQNKFREALFKRDGKCKICGLAHKELLIASHIKPWSKSTPEEKLNPFNGFLLCPNHDSLFDKHLISFKDNGEIIISKRLSEKEQELLSINKDIMINIEEGNKKFLKEHRDVFCKIEKAFDLEKELAISNKEIYNVELEV endpoint="protein production" result=failed
residue_string=MTRRVIALAGGATFKDIVRTMETQLISALPVIDSGSHVIGVVSEADVLRKEEFRDSDQLRGPRSRPPGALVKARAVTAEDLMTAPAVTVHPKAPVARAARLMARRRVKRLPVVDDEGVLQGIVSRADLLRVFLRSDPDIAEEVRREIVGGRFPEGLGSVRVEVHEGVVTLTGRVPDTSLVPLAERLVRSVEGVVDVRCVLTGPRHRMTGESEKAGAAAHRPGP endpoint="protein production" result=failed

Enquiry: Report protein production for `MTGTRIAIGICTFRRPGIAATLASLGALRWPEGMSGLVIVADNDETPSARETVHAAAKGLPLPVCYLHAPARNISVARNAILEAAGARGLERLAFLDDDEMVEPGWIEALTEALARTGAEAVLGPVRAEHGAEAPAWMRESAIHDTRPTFLPDGSIKSGYSCNVLMDLTAPALEGLRFDPERGRSGGEDTAFFEAMLRRGGRLGFAPDALVRETVPADRARLGWLLRRRFRMGQTHASLIAGPGRAQRAKQALVALSKVAACSGMALAAVHDPLRRNNALLRGALHVGTLSALFGARPITIYGGTGPAPSTFDSKTDSYLVSRSRT`
Return: failed

Enquiry: Report protein production for `MRKPIEHTADIAYEISGNSYEELLEEARNILLEEEGIVLDTEEKEKMYPLEETEDAFFDTVNDWILEISKGWAPWRIKREGNELKVTFRKIRKKEGTEIKALTYHLLKFERDGDVLKTKVVFDT`
Return: not failed

Enquiry: Report protein production for `HFPARVKVEPAVDTSRIKVFGPGIEGKDVFREATTDFTVDSRPLTQVGGDHIKAHIANPSGASTECFVTDNADGTYQVEYTPFEKGLHVVEVTYDDVPIPNSPFKVAVTEGCQPS`
Return: not failed

Enquiry: Report protein production for `MTKIAILGANGRLGRVVAKAFIDAGFDVRTVTRTGKVPAELDGATAVAGDALDRQSLISATEGVDIIFNGLNPIYTDWGKCLPMAENVMAACHANNALHLFPGTVYNYGSPMPAVITEDTPFHPTTEKGRIRCAMEELFRREADAGRVRTILLRAGDFFGGTGSGSWFDLVVAAKMSKGVYTAPGPVDLVHEWAYLPDFAVGFVALARNLDRLGSYEALNFPGHAVTDLEIKAAAEKALGRPLKMTSMPWWVLRAGSPFVAMWREIVSMSYLRFEPHQLASTRLEGIIGEIPHTPLDQAVAQALEDIGIATVKGMKAA`
Return: failed
